meta.source: paper PMC11680592

target: UniProtKB P53341
Sequence (P53341 whole entry): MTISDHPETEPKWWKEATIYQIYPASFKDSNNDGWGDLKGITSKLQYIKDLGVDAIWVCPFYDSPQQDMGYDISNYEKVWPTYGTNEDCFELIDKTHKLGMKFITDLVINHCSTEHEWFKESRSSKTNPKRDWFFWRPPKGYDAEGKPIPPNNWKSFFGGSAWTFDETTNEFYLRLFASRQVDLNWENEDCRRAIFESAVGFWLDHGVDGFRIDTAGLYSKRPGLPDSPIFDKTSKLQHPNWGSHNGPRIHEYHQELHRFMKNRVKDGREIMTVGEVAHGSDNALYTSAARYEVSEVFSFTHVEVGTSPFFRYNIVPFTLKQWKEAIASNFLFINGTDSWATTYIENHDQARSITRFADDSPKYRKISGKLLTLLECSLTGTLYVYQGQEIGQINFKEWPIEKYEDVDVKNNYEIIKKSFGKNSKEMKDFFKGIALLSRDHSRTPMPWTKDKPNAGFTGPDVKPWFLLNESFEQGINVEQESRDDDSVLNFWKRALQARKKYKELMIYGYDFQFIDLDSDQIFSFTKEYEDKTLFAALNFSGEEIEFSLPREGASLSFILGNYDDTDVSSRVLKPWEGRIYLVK
READOUT: pKi
Would you please state pKi, meaning minus log10 of the concentration in mol/L, as a bare number?

Quote UniProtKB P53341 pKi for entry NC(=S)N/N=C/c1cc2ccccc2nc1SCc1cn(CC(=O)NCCc2ccccc2)nn1 [Compound 10n] .
4.32
